Reported IC50 values for a set of molecules
TESTED_ON: baculovirus-expressed ALK (Homo sapiens, UniProt Q9UM73)
Construct: host or cells: baculovirus expression system
Sequence (Q9UM73 19-1620): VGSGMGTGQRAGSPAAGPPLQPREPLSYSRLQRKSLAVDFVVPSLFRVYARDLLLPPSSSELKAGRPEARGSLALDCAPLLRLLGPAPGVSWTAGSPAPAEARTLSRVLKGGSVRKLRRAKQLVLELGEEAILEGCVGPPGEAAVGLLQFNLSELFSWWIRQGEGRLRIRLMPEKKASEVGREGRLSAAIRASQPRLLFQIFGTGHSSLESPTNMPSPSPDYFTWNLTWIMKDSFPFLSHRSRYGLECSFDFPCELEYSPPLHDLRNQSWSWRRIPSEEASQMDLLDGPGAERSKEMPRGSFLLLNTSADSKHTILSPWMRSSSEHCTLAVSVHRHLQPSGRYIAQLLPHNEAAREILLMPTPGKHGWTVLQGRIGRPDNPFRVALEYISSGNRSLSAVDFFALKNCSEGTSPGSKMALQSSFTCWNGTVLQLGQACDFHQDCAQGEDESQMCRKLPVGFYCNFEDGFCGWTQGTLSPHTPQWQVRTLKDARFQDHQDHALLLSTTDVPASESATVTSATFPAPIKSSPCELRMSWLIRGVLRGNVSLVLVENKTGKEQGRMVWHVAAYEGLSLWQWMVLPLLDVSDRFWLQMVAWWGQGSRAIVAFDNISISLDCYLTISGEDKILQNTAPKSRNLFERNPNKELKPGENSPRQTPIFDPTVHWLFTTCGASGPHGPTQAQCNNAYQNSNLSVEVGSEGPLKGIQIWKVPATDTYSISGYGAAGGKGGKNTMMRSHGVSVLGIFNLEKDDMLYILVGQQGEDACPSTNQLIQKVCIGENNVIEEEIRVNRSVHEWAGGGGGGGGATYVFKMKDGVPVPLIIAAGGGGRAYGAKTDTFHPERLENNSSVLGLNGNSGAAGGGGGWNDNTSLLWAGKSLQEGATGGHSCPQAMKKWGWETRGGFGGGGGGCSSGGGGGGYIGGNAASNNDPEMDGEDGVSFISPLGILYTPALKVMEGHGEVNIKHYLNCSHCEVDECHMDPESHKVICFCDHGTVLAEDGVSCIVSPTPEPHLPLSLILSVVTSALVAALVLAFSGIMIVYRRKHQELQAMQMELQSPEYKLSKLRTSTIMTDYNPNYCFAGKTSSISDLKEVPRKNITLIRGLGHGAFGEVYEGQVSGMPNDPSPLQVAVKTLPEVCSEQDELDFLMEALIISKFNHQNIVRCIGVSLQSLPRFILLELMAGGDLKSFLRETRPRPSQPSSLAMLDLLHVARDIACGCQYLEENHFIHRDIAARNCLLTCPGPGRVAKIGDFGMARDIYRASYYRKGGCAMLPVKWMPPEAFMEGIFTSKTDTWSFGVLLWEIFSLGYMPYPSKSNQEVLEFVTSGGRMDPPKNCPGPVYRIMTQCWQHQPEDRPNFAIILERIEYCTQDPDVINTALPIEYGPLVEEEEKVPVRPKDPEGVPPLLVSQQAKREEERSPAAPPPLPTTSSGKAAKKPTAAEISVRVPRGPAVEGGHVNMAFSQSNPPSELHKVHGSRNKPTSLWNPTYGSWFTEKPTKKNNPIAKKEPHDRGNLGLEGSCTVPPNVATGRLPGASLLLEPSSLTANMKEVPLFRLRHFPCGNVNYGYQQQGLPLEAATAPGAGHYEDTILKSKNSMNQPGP
EXPERIMENTAL_PROTOCOL: ALK Kinase Assay (ELISA-type, time-resolved fluorescence)
Format: biochemical
EXPERIMENTAL_SETUP: ALK kinase inhibition, 1 μM ATP (Km level); read-out: ALK Activity

{"columns": ["MOLECULE", "IC50"],
 "data": [
  ["COc1c(Nc2ncc(Cl)c(N[C@H]3[C@@H](C(N)=O)[C@@H]4C=C[C@H]3C4)n2)ccc2c1CCCC(=O)N2 (relative stereo)", "< 100 nM"],
  ["CNC(=O)c1ccccc1Nc1nc(Nc2ccc3c(c2)CCN(C(=O)C(F)(F)F)CC3)ncc1Cl", "< 100 nM"],
  ["CNC(=O)c1ccccc1Nc1nc(Nc2ccc3c(c2)CCN(CC(C)(C)F)CC3)ncc1Cl", "< 100 nM"],
  ["CNC(=O)c1ccccc1Nc1nc(Nc2ccc3c(c2)C2CCC3CN(C(C)=O)C2)ncc1Cl (centres unmarked)", "< 100 nM"],
  ["CCN1C(=O)CCCc2cc(Nc3ncc(Cl)c(Nc4cc(Cl)ccc4OC)n3)c(OC)cc21", "100 to 1000 nM"]
]}

* * *

TESTED_ON: c-Met (cytoplasmic domain) (Homo sapiens)
Construct: 10 ng/mL c-Met (cytoplasmic domain, Invitrogen Corporation #PV3143); purchased Invitrogen Corporation PV3143
Sequence (P08581 956-1390 limits assumed): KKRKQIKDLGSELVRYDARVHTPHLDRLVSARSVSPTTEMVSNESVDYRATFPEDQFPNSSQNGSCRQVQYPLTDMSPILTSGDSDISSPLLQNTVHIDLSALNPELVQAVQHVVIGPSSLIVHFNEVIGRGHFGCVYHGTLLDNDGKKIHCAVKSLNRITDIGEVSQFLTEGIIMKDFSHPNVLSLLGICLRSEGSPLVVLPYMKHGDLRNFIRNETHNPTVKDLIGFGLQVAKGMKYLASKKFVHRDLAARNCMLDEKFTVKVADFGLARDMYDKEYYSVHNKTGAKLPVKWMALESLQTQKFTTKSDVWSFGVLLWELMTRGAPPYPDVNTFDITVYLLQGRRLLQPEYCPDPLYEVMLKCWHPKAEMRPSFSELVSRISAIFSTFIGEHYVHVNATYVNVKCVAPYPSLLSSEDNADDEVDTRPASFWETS
EXPERIMENTAL_PROTOCOL: c-Met Kinase Assay (same methods as for ALK, with modifications)
Assay type: biochemical
EXPERIMENTAL_SETUP: 1 μM ATP (Km level), 10 ng/mL c-Met; read-out: cMet Activity (c-Met kinase inhibition, IC50 class)
pIC50: −log10 of the molar value.
Catalogue of compounds with associated pIC50

{"columns": ["COMPOUND", "pIC50"],
 "data": [
  ["COc1c(Nc2ncc(Cl)c(Nc3ccccc3S(=O)(=O)N(C)C)n2)ccc2c1CC(N1CCOCC1)CCC2 (racemic)", "5.00 to 6.00"],
  ["CCOC(=O)N1CCCOc2cc(Nc3ncc(Cl)c(Nc4ccsc4C(=O)NC)n3)ccc21", "6.00 to 7.00"],
  ["O=C1CCCc2ccc(Nc3ncc(Cl)c(Nc4c(F)cccc4OC4CCOCC4)n3)cc2N1", "5.00 to 6.00"],
  ["COCCN1CCc2ccc(Nc3ncc(Cl)c(Nc4c(OC)cccc4C(=O)NCCC#N)n3)cc2CC1", "5.00 to 6.00"],
  ["CCCCNC(=O)c1ccccc1Nc1nc(Nc2cc3c(cc2OC)CCN(CCOC)CC3)ncc1Cl", "< 5.00"],
  ["COc1cc2c(cc1Nc1ncc(Cl)c(N[C@@H]3CCCC[C@H]3NS(C)(=O)=O)n1)CCC(N1CCOCC1)CC2 (stereo partly shown)", "< 5.00"],
  ["CC(=O)N1CCC(=O)NCc2cc(Nc3ncc(Cl)c(Nc4c(C)cccc4OCC#N)n3)ccc21", "> 7.00"],
  ["CNC(=O)c1ccccc1Nc1nc(Nc2ccc3c(c2)CNC(=O)CCN3C(C)=O)ncc1Cl", "> 7.00"],
  ["CCN1C(=O)[C@@H](NC(=O)C2CC2)CCc2c1ccc(Nc1ncc(Cl)c(N[C@H]3[C@@H](C(N)=O)[C@@H]4C=C[C@H]3C4)n1)c2OC (single isomer, unassigned)", "< 5.00"],
  ["CCN1C(=O)CCC(C)(C)c2ccc(Nc3ncc(Cl)c(Nc4ccccc4S(=O)(=O)C(C)C)n3)cc21", "> 7.00"]
]}

* * *

TESTED_ON: baculovirus-expressed ALK (Homo sapiens)
Construct: host or cells: baculovirus expression system
EXPERIMENTAL_PROTOCOL: ALK Kinase Assay (ELISA-type, time-resolved fluorescence)
Assay type: biochemical
EXPERIMENTAL_SETUP: 1 μM ATP (Km level), 30 ng/ml ALK, 37° C., 15 minutes; read-out: ALK Activity (ALK kinase inhibition, IC50 class)
Below, each of the compounds is paired with its reported IC50 value.

{"columns": ["COMPOUND_STRING", "IC50"],
 "data": [
  ["COCCN1CCc2ccc(Nc3ncc(Cl)c(Nc4ccc5[nH]c(C(F)(F)F)nc5c4)n3)cc2CC1", "0.1 to 1 µM"],
  ["COCCN1CCc2cc(Nc3ncc(Cl)c(NC4(C(=O)NCC#N)CC4)n3)c(OC)cc2CC1", "1 to 10 µM"],
  ["CCCCNC(=O)c1ccccc1Nc1nc(Nc2ccc3c(c2)CCCC(=O)N3)ncc1Cl", "0.1 to 1 µM"]
]}

* * *

# maps each entry to its pIC50
TESTED_ON: baculovirus-expressed ALK (Homo sapiens, UniProt Q9UM73)
Construct: host or cells: baculovirus expression system
EXPERIMENTAL_PROTOCOL: ALK Kinase Assay (ELISA-type, time-resolved fluorescence)
Format: biochemical
EXPERIMENTAL_SETUP: ALK kinase inhibition, 1 μM ATP (Km level); read-out: ALK Activity
pIC50: −log10 of the molar value. Counter-ions that a name gives are not always drawn.
RECORDED_METRIC: pIC50

{"columns": ["COMPOUND", "TESTED_ON", "RESULT"],
 "data": [
  ["CS(=O)(=O)N[C@@H]1CCCC[C@H]1Nc1nc(Nc2ccc3c(c2)C2CCC3CN(C(=O)C(F)(F)F)C2)ncc1Cl (mixture of isomers)", "baculovirus-expressed ALK (Homo sapiens, UniProt Q9UM73)", "> 7.00"],
  ["COCCN1C2CCC1c1cc(Nc3ncc(Cl)c(Nc4c(F)cccc4C(=O)OC(C)C)n3)ccc1C2 (stereo not drawn)", "baculovirus-expressed ALK (Homo sapiens, UniProt Q9UM73)", "6.00 to 7.00"],
  ["COc1cc(N2CCOCC2)ccc1Nc1nc(Nc2ccc3c(c2OC)CCCC(=O)N3)ncc1Cl", "baculovirus-expressed ALK (Homo sapiens, UniProt Q9UM73)", "> 7.00"],
  ["CNC(=O)c1ccccc1Nc1nc(Nc2cccc3c2C(=O)NC(C)CN3C(=O)C(F)(F)F)ncc1Cl (stereo not drawn)", "baculovirus-expressed ALK (Homo sapiens, UniProt Q9UM73)", "< 5.00"],
  ["CNC(=O)c1ccccc1Nc1nc(Nc2ccc3c(c2)CCN(C(C)C)CC3)ncc1Cl", "baculovirus-expressed ALK (Homo sapiens, UniProt Q9UM73)", "> 7.00"],
  ["CNC(=O)c1cccc(OC)c1Nc1nc(Nc2ccc3c(c2)CCN(CCOC)CC3)ncc1Cl", "baculovirus-expressed ALK (Homo sapiens, UniProt Q9UM73)", "6.00 to 7.00"],
  ["CC1CNC(=O)c2c(Nc3ncc(Cl)c(N[C@@H]4CCCC[C@H]4NS(C)(=O)=O)n3)cccc2N1C(=O)C(F)(F)F (stereo partly drawn)", "baculovirus-expressed ALK (Homo sapiens, UniProt Q9UM73)", "6.00 to 7.00"],
  ["CNC(=O)c1cccc(Cl)c1Nc1nc(Nc2ccc3c(c2)N(C)CCNC3)ncc1Cl", "baculovirus-expressed ALK (Homo sapiens, UniProt Q9UM73)", "6.00 to 7.00"],
  ["CNC(=O)c1ccccc1Nc1nc(Nc2ccc3c(c2)C2CCC3CN(S(C)(=O)=O)C2)ncc1Cl (stereo not drawn)", "baculovirus-expressed ALK (Homo sapiens, UniProt Q9UM73)", "> 7.00"],
  ["CCN1CCc2ccc(OC)c(Nc3ncc(Cl)c(Nc4ccccc4S(=O)(=O)NC)n3)c2CC1", "baculovirus-expressed ALK (Homo sapiens, UniProt Q9UM73)", "> 7.00"],
  ["COCCN1CCc2ccc(Nc3ncc(Cl)c(Nc4ccccc4C(=O)NC4CC4)n3)cc2CC1", "baculovirus-expressed ALK (Homo sapiens, UniProt Q9UM73)", "> 7.00"],
  ["NC(=O)C1C2C=CC(C2)C1Nc1nc(Nc2ccc3c(c2)CNC(=O)NC3)ncc1Cl (stereo not drawn)", "baculovirus-expressed ALK (Homo sapiens, UniProt Q9UM73)", "> 7.00"],
  ["CCNC(=O)c1ccccc1Nc1nc(Nc2ccc3c(c2)CCN(CCOC)CC3)ncc1Cl", "baculovirus-expressed ALK (Homo sapiens, UniProt Q9UM73)", "> 7.00"],
  ["CNS(=O)(=O)c1ccccc1Nc1nc(Nc2ccc3c(c2)C2CC3CN(S(C)(=O)=O)C2)ncc1Cl (stereo not drawn)", "baculovirus-expressed ALK (Homo sapiens, UniProt Q9UM73)", "> 7.00"],
  ["CCN1C(=O)CCC(C)(C)c2cc(Nc3ncc(Cl)c(Nc4ccc(N5CCOCC5)cc4OC)n3)ccc21", "baculovirus-expressed ALK (Homo sapiens, UniProt Q9UM73)", "> 7.00"],
  ["CCN1CC2CC(C1)c1cc(Nc3ncc(Cl)c(Nc4ccccc4S(=O)(=O)NC)n3)ccc12 (stereo not drawn)", "baculovirus-expressed ALK (Homo sapiens, UniProt Q9UM73)", "> 7.00"],
  ["CCN1CCc2ccc(Nc3ncc(Cl)c(NCCNS(C)(=O)=O)n3)cc2CC1", "baculovirus-expressed ALK (Homo sapiens, UniProt Q9UM73)", "6.00 to 7.00"],
  ["COc1cc2c(cc1Nc1ncc(Cl)c(N[C@@H]3[C@H](C(N)=O)[C@H]4C=C[C@@H]3C4)n1)CCN(CC(F)(F)F)CC2 (relative stereo) [Example 250, hydrochloride]", "baculovirus-expressed ALK (Homo sapiens, UniProt Q9UM73)", "> 7.00"],
  ["CCN1CCc2ccc(Nc3ncc(Cl)c(Nc4ccccc4S(=O)(=O)NC)n3)cc2CC1", "baculovirus-expressed ALK (Homo sapiens, UniProt Q9UM73)", "> 7.00"],
  ["CCN1CC2CC(C1)c1cc(Nc3ncc(Cl)c(Nc4ccccc4C(=O)NC)n3)ccc12 (stereo not drawn)", "baculovirus-expressed ALK (Homo sapiens, UniProt Q9UM73)", "> 7.00"],
  ["CCN1CCc2cc(Nc3ncc(Cl)c(NC4C5C=CC(C5)C4C(N)=O)n3)c(OC)cc2CC1=O (stereo not drawn)", "baculovirus-expressed ALK (Homo sapiens, UniProt Q9UM73)", "> 7.00"],
  ["NC(=O)C1C2CCC(C2)C1Nc1nc(Nc2ccc3c(c2)CCN(CC(O)C(F)(F)F)CC3)ncc1Cl (stereo not drawn)", "baculovirus-expressed ALK (Homo sapiens, UniProt Q9UM73)", "> 7.00"],
  ["COc1cc(N2CCOCC2)ccc1Nc1nc(Nc2ccc3c(c2)CCN(C[C@H](OC)C(F)(F)F)CC3)ncc1Cl", "baculovirus-expressed ALK (Homo sapiens, UniProt Q9UM73)", "> 7.00"],
  ["CN1C(=O)CCCc2cc(Nc3ncc(Cl)c(Nc4ccccc4C(=O)NCCO)n3)ccc21", "baculovirus-expressed ALK (Homo sapiens, UniProt Q9UM73)", "> 7.00"],
  ["COc1cc2c(cc1Nc1ncc(Cl)c(Nc3ccc(N4CCOCC4)cc3OC)n1)N(C)CCNC2", "baculovirus-expressed ALK (Homo sapiens, UniProt Q9UM73)", "> 7.00"],
  ["CCN1C(=O)CCCc2c1ccc(Nc1ncc(Cl)c(N[C@@H]3CCC[C@H]3NS(C)(=O)=O)n1)c2OC (relative stereo)", "baculovirus-expressed ALK (Homo sapiens, UniProt Q9UM73)", "6.00 to 7.00"],
  ["CNS(=O)(=O)c1ccccc1Nc1nc(Nc2ccc3c(c2)CCN(CCOC)CC3)ncc1Cl", "baculovirus-expressed ALK (Homo sapiens, UniProt Q9UM73)", "> 7.00"]
]}
